# STUDY_SYSTEM: T1, IL-1R/IL-1RacP receptor on human cells (human, UniProt P14778 18-569; Q9NPH3 21-570)
# T1 sequence (looked up) 1: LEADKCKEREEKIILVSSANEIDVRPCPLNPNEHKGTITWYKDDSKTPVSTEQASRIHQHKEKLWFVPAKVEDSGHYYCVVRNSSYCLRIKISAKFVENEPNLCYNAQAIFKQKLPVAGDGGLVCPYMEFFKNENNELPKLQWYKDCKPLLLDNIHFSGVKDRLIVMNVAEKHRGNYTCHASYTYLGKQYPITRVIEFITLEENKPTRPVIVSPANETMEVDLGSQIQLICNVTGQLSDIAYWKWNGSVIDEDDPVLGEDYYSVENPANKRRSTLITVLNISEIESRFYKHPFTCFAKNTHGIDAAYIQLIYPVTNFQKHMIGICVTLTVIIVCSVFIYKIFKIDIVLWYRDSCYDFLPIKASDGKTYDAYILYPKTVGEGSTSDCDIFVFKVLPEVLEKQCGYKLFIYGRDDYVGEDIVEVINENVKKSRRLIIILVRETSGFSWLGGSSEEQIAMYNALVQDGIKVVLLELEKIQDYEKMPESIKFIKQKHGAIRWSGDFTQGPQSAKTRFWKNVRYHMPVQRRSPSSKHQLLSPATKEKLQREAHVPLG
# T1 sequence (looked up) 2: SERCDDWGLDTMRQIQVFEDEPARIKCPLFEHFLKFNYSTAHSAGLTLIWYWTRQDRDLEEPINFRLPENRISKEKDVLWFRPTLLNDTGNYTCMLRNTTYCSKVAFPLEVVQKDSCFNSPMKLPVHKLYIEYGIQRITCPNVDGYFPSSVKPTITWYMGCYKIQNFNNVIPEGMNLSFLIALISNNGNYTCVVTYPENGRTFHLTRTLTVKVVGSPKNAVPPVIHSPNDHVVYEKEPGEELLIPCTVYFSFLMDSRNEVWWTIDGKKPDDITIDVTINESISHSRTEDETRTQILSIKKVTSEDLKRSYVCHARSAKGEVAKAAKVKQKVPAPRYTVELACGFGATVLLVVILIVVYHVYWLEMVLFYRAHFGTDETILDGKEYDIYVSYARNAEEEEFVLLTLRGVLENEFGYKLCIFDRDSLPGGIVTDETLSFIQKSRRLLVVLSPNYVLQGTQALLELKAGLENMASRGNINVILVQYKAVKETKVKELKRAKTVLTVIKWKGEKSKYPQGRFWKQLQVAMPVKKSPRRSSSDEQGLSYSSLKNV
# ASSAY_NAME: cell-based or functional assay
Where no end group is shown, it is not given here. [ ]: non-standard residue; d: D form. dOrn = NCCC[C@@H](N)C(=O)O
TEST_READOUT: Emax (%), IL-1β-induced TF-1 proliferation

binder="[dR][dW][dT][dP][dE][dL] [API-101.128]" experimental_result=100

[a] [dR][dY][dT][dP][dE][dV] [API-101.129]
[b] [dOrn][dY][dT][dP][dE][dL] [API-101.126]
Task: Form: Entry with minimum Emax (%), IL-1β-induced TF-1 proliferation (choose one): a / b # reply format: chosen label
Output: b
